Attribution: PubChem BioAssay (NCI)

Test system: MDA-MB-468 breast
Test: NCI tumour cell line growth inhibition, 48 h
reported-endpoint: TGI

Could you tell me which TGI is on file for C=C1CC[C@@H]2[C@]3(C)COC(c4cn[nH]c4-c4cccc(Cl)c4)O[C@@H]3CC[C@@]2(C)[C@@H]1C/C=C1/C(=O)OCC1O (stereo partly drawn) ?
4.97 µM

Consider the molecule shown here: N/C(=N/N=C/c1ccccc1)N/N=C\c1ccccc1 What is its recorded TGI?
11.3 µM

What does the record list as TGI for N#C[Se]CCN1C(=O)C2C(C1=O)[C@H]1C=C[C@@H]2S1 (stereo partly drawn) ?
7.71 µM

Give its TGI value. Item: COc1cc2c(cc1Cc1cccc(Cl)c1F)c(=O)c(C(=O)O)cn2[C@@H](CO)C(C)C
9.32 µM

Give the measured TGI of CC(=O)Nc1c(I)c(NC(C)=O)c(I)c(C(=O)O)c1I .
> 100 µM

Requested field: TGI. Item: N#Cc1c(N2CCOCC2)nc(=S)[nH]c1-c1ccccc1
> 100 µM

Given CN(C)CCCOc1c2ccc(Cl)cc2nc2c1oc1ccccc12 , state its recorded TGI.
5.07 µM

What does the data say about its TGI? Entry: C=C1[C@@H](C)C2[C@H](Cc3ccccc3)NC(=O)[C@]23[C@H](OC(C)=O)/C=C/[C@@](C)(O)C(=O)[C@@H](C)C/C=C/[C@H]3[C@@H]1O (stereo partly drawn)
12.7 µM

# query: TGI of entry Cc1cc(O)cc(C)c1/C=C/c1cncc(C(N)=O)c1
4.62 µM

Fill in the blank: the reported TGI of S=C(NCCNC(=S)[S][Sn]([c]1ccccc1)([c]1ccccc1)[c]1ccccc1)[S][Sn]([c]1ccccc1)([c]1ccccc1)[c]1ccccc1 is ____.
0.0419 µM

Sample COc1cc2c(c(OC)c1OC)-c1ccc(OC)c(=O)cc1[C@@H](NC(C)=O)CC2 — what was its TGI?
> 100 µM

Recorded TGI for Clc1ccc(Nc2ccnc(N3CCN(c4ccnc5cc(Cl)ccc45)CC3)n2)cc1 , please?
5.56 µM

Can you share its TGI? I mean this molecule: CN1CCC2(CC1)NC(=O)c1c(c3ccc(Cl)c(Cl)c3n1C)C2C#N (stereo not drawn)
6.87 µM

Recorded TGI for C[C@]12CC[C@@H]3c4cc(O)c(O)cc4CC[C@H]3[C@@H]1CC[C@@H]2O , please?
21.1 µM

GET /values?readout=TGI&item= N#Cc1c(N)n2c(nc1=Nc1ccc(Cl)cc1)sc1cc(Cl)ccc12
> 100 µM

What TGI value was documented for this molecule, Cn1nc(C(F)(F)F)cc1-c1c[nH]c(OCc2ccc(Cl)cc2)c(-c2ccc(Cl)c(C(F)(F)F)c2)c1=O ?
4.73 µM

TGI for COc1cc(C(=O)N2CCN(c3ccccc3)CC2)c2ccccc2n1 ?
0.211 µM

Recorded TGI of CN1CCN(Cc2ccc(NC(=O)c3cncc(C#Cc4cnc5ccc(OCC(C)(C)O)nn45)c3)cc2C(F)(F)F)CC1 , please.
0.409 µM

---

Tested on: MDA-MB-468 breast
Test: NCI tumour cell line growth inhibition, 48 h; in the data active = GI50 below about 0.43 µM; inactive = the rest
Where a SMILES comes first, the peptide text is derived from it. Bridges are numbered along the chain shown (N, C = ends). [ ]: non-standard residue; d: D form. The star is where a group is joined. ξ: configuration not given here. ξDab(CH2SO3H) = NC(CCNCS(=O)(=O)O)C(=O)O; Heptanoyl(6-Me) = CC(C)CCCCC(=O)*; Dab = NCC[CH](N)C(=O)O
Write down one outcome, taken from active, inactive

Entry S=C(NCCNC(=S)[S][Sn]([c]1ccccc1)([c]1ccccc1)[c]1ccccc1)[S][Sn]([c]1ccccc1)([c]1ccccc1)[c]1ccccc1 : call = ?
active

Recorded test call requested for Cn1nc(C(F)(F)F)cc1-c1c[nH]c(OCc2ccc(Cl)cc2)c(-c2ccc(Cl)c(C(F)(F)F)c2)c1=O
inactive

Fill in: this test's call for O=C(Nc1ccc(-n2cc(-c3ccncc3)c(-c3ccc(O)c(Cl)c3)n2)cc1)Nc1ccc(Cl)c(C(F)(F)F)c1 is ___
inactive

// param item: COc1ccc2c(O)c(/C=C3\N=Nc4ccccc43)oc2c1C[C@@H]1CCNC[C@H]1F ; yields the recorded call
inactive

Kindly provide the recorded test outcome for the following compound: CCCCCCCCCCCCSC1=C(Cl)C(=O)C(OC)=C(OC)C1=O
inactive

What did the test return for COc1cccc(/C=N/NC(=O)c2ccccc2N2CCCC2)c1O ?
inactive

Just curious, what result did COCCNc1ccc2c3c(cccc13)C(=O)N(CCN(C)C)C2=O get here?
inactive

What was the test verdict on CN1CCC2(CC1)NC(=O)c1c(c3ccc(Cl)c(Cl)c3n1C)C2C#N (configuration not stated) ?
inactive

# outcome recorded in this test, key = [Cl][Hg][c]1ccc(Cl)s1
inactive

What was the test verdict on COc1cc2c(c(OC)c1OC)-c1ccc(OC)c(=O)cc1[C@@H](NC(C)=O)CC2 ?
active

# lookup: test call for Cc1cc(Nc2ncc3c(n2)N(C)C(=O)N(c2cc(NC(=O)c4cccc(C(F)(F)F)c4)ccc2C)C3)n(C)n1
active

For O=[N+]([O-])c1ccc(C2CC(c3ccccc3)=Nc3ccccc3S2)cc1 (configuration not stated) , what call appears in the results of this test?
inactive

Write down the call the test reported for this compound. Item: COc1cc(C(=O)N2CCN(c3ccccc3)CC2)c2ccccc2n1
active

State the result this test recorded for Cc1nc(-c2nc(-c3ccc(OC(F)(F)F)cc3)no2)nn1Cc1cccc(N2CCC(S(C)(=O)=O)CC2)c1 .
active

Could you check what this test reported for Cn1cc(C2=C(c3c4n(c5ccccc35)CCC(CN)C4)C(=O)NC2=O)c2ccccc21 (configuration not stated) ?
inactive

What was the test verdict on CCC(C)C1NC(=O)C(CCNCS(=O)(=O)O)NC(=O)C(NC(=O)C(CCNCS(=O)(=O)O)NC(=O)C(NC(=O)C(CCNCS(=O)(=O)O)NC(=O)CCCCC(C)C)C(C)O)CCNC(=O)C(C(C)O)NC(=O)C(CCNCS(=O)(=O)O)NC(=O)C(CCNCS(=O)(=O)O)NC(=O)C(C(C)CC)NC1=O (configuration not stated) ({Heptanoyl(6-Me)}-[ξDab(CH2SO3H)]T[ξDab(CH2SO3H)][Dab][ξDab(CH2SO3H)]II[ξDab(CH2SO3H)][ξDab(CH2SO3H)]T; lactam 4-C; configuration not given here) ?
inactive

Recorded call for N#Cc1c(N2CCOCC2)nc(=S)[nH]c1-c1ccccc1 ?
inactive
